Biological target: FPR2 (Homo sapiens)
Construct: expressed in transfected cells; host or cells: HL60 (human promyelocytic leukemia), stably transfected; gift from Dr. Marie-Josephe Rabiet
Assay: Ca2+ mobilization in FPR2-transfected HL60 cells
Type: cell-based
Conditions: HL-60; read-out: FPR2-HL60 Efficacy (converted)
Attribute measured: Emax (%)

>>> recorded_measurement("Cc1c(C(N)=O)cc(C#N)c(=O)n1CC(=O)Nc1ccc(Br)cc1")
125

1: CNC(=O)c1cc(C#N)c(=O)n(CC(=O)Nc2ccc(Br)cc2)c1C
2: COc1cccc(CCOC(=O)c2cc(C#N)c(=O)n(CC(=O)Nc3ccc(Br)cc3)c2C)c1
input: I need your help: which of the pair 1 , 2 has higher Emax? API: response body contains the label of the selected item.
output: 1
(1: 115%, 2: 75%)

P: CCNC(=O)c1cc(C#N)c(=O)n(CC(=O)Nc2ccc(Br)cc2)c1C
Q: CCCCOC(=O)c1cc(C#N)c(=O)n(CC(=O)Nc2ccc(Br)cc2)c1C
input: Please indicate which item has the smaller measured Emax: P versus Q API: response body contains the label of the selected item.
output: Q
(Q: 75%, P: 120%)

###

Test system: human neutrophils (hPMN)
Assay: Ca2+ mobilization in human neutrophils (hPMN)
Type: cell-based
Settings: Neutrophil, read-out: hPMN Efficacy (converted)
Measured Emax of individual entries
The figure you give is taken to be in %; do not add the unit.

Some molecules with recorded Emax:
>>> recorded_measurement("CCCOC(=O)c1cc(C#N)c(=O)n(CC(=O)Nc2ccc(Br)cc2)c1C")
115
>>> recorded_measurement("Cc1c(C(=O)OC(C)C)cc(C#N)c(=O)n1CC(=O)Nc1ccc(Br)cc1")
120
>>> recorded_measurement("COc1ccc(C(=O)c2cc(C#N)c(=O)n(CC(=O)Nc3ccc(Br)cc3)c2C)cc1")
120
>>> recorded_measurement("COc1cccc(COC(=O)c2cc(C#N)c(=O)n(CC(=O)Nc3ccc(Br)cc3)c2C)c1")
65

Proceed to the following item.
Sure, the documented Emax for CCCCOC(=O)c1cc(C#N)c(=O)n(CC(=O)Nc2ccc(Br)cc2)c1C is 110

###

Biological target: FPR2 (Homo sapiens)
Construct: expressed in transfected cells; host or cells: HL60 (human promyelocytic leukemia), stably transfected; gift from Dr. Marie-Josephe Rabiet
Sequence (P25090 1-351): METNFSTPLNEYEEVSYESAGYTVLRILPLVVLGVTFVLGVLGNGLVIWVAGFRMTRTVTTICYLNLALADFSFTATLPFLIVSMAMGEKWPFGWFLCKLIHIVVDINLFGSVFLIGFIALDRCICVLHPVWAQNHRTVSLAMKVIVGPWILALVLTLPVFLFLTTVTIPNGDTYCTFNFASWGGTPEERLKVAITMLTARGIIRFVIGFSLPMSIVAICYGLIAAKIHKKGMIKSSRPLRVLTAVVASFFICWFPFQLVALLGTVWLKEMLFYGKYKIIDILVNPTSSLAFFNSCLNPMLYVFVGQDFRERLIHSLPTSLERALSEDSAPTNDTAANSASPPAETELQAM
Assay: Ca2+ mobilization in FPR2-transfected HL60 cells
Type: cell-based
Conditions: HL-60; read-out: FPR2-HL60 Efficacy (converted)
Attribute measured: Emax (%)

>>> recorded_measurement("COc1cccc(COC(=O)c2cc(C#N)c(=O)n(CC(=O)Nc3ccc(Br)cc3)c2C)c1")
100

1: CCCOC(=O)c1cc(C#N)c(=O)n(CC(=O)Nc2ccc(Br)cc2)c1C
2: Cc1c(C(=O)OC(C)C)cc(C#N)c(=O)n1CC(=O)Nc1ccc(Br)cc1
input: Please indicate which item has the smaller measured Emax: 1 versus 2 API: response body contains the label of the selected item.
output: 2
